- System: Fluoroquinolone Sensitive Strains
- procedure-text: In-vitro antimicrobial test (MIC, two-fold serial agar dilution, NCCLS), Table 17
- Type: cell-based
- test-settings: Streptococcus pneumoniae, ATCC49619, S. pneumoniae ATCC 49619
I'd appreciate it if you could supply MIC values for the items below.
Your answer is read as µg/mL, so omit the unit and give the number.

Looking up Cc1c(N2CCC(N)C(C)(C)C2)c(F)c(N)c2c(=O)c(C(=O)O)cn(C3CC3)c12 (single isomer, unassigned; (-)) , I found its MIC recorded as 0.2

Looking up Cc1c(N2CCC(N)C(C)(C)C2)c(F)cc2c(=O)c(C(=O)O)cn(C3CC3)c12.Cl (racemic) , I found its MIC recorded as 0.025

Looking up Cc1c(N2CC[C@H](N)[C@H](C)C2)c(F)cc2c(=O)c(C(=O)O)cn(C3CC3)c12.Cl (relative stereo) , I found its MIC recorded as 0.05

Looking up Cc1c(N2CC[C@@H](N)[C@H](C)C2)c(F)cc2c(=O)c(C(=O)O)cn(C3CC3)c12.Cl (single isomer, unassigned) , I found its MIC recorded as 0.05

Looking up COc1c(N2CC(C)C(O)C(C)C2)c(F)cc2c(=O)c(C(=O)O)cn(C3CC3)c12 (stereo not shown) , I found its MIC recorded as 0.4

Looking up Cc1c(N2CCC(O)C(C)(C)C2)c(F)cc2c(=O)c(C(=O)O)cn(C3CC3)c12 (racemic) , I found its MIC recorded as 0.025

Looking up COc1c(N2CCC(N)C(C)C2)c(F)cc2c(=O)c(C(=O)O)cn(C3CC3)c12 (stereo not shown) , I found its MIC recorded as 0.2

Looking up C[C@H]1COc2c(N3CCN(C)CC3)c(F)cc3c(=O)c(C(=O)O)cn1c23 [S-(−)-levofloxacin, reference compound] , I found its MIC recorded as 0.8

Looking up COc1c(N2CCC(NC3CC3)C(C)(C)C2)c(F)c(N)c2c(=O)c(C(=O)O)cn(C3CC3)c12 (stereo not shown) , I found its MIC recorded as 0.2

Looking up COc1c(N2C[C@@H]3CCCN[C@@H]3C2)c(F)cc2c(=O)c(C(=O)O)cn(C3CC3)c12 [Moxifloxacin, reference compound] , I found its MIC recorded as 0.2

Looking up Cc1c(N2CC[C@@H](O)[C@H](C)C2)c(F)cc2c(=O)c(C(=O)O)cn(C3CC3)c12 (relative stereo) , I found its MIC recorded as 0.025

Looking up CCn1cc(C(=O)O)c(=O)c2cc(F)c(N3CC(C)C(NC)C(C)C3)c(OC)c21 (stereo not shown) , I found its MIC recorded as 0.1

Looking up COc1c(N2CC(C)C(O)C(C)(C)C2)c(F)cc2c(=O)c(C(=O)O)cn(C3CC3)c12 (stereo not shown) , I found its MIC recorded as 0.1

----------
readout-kind: melting point

Looking up Cc1c(N2CC[C@@H](N)[C@H](C)C2)c(F)cc2c(=O)c(C(=O)O)cn(C3CC3)c12 (single isomer, unassigned) [Compound 97] , I found its melting point recorded as 223 to 225 °C

Looking up COc1c(N2CCC(N(C)C)C(C)C2)c(F)cc2c(=O)c(C(=O)O)cn(C3CC3)c12 (centres unmarked) [Compound 13] , I found its melting point recorded as 180 to 182 °C

Looking up CNC1CCN(c2c(F)cc3c(=O)c(C(=O)O)cn(C4CC4)c3c2C)CC1C (centres unmarked) [Compound 113] , I found its melting point recorded as 233 to 235 °C

Looking up COc1c(N2CCC(N)C(C)(C)C2)c(F)c(N)c2c(=O)c(C(=O)O)cn(C3CC3)c12 (centres unmarked) [Compound 68] , I found its melting point recorded as 205 °C

Looking up COc1c(N2CC[C@@H](N)[C@H](C)C2)c(F)cc2c(=O)c(C(=O)O)cn(C3CC3)c12 (relative stereo) [Compound 2] , I found its melting point recorded as 240 to 242 °C

Looking up COc1c(N2CC(C)C(N)C(C)C2)c(F)cc2c(=O)c(C(=O)O)cn(C3CC3)c12 (centres unmarked) [Compound 44] , I found its melting point recorded as 178 to 180 °C

Looking up COc1c(N2CCC(NC3CC3)C(C)C2)c(F)c(N)c2c(=O)c(C(=O)O)cn(C3CC3)c12 (centres unmarked) [Compound 62] , I found its melting point recorded as 218 to 220 °C

Looking up CCNC1C(C)CN(c2c(F)c(N)c3c(=O)c(C(=O)O)cn(C4CC4)c3c2OC)CC1C (centres unmarked) [Example 57] , I found its melting point recorded as 202 to 204 °C

Looking up CNC1C(C)CN(c2c(F)c(N)c3c(=O)c(C(=O)O)cn(C4CC4)c3c2OC)CC1C (centres unmarked) [Compound 83] , I found its melting point recorded as 224 to 226 °C

Looking up COc1c(N2CCC(N(C)C)C(C)C2)c(F)c(N)c2c(=O)c(C(=O)O)cn(C3CC3)c12 (centres unmarked) [Compound 63] , I found its melting point recorded as 210 °C

Looking up Cc1c(N2CC[C@H](O)[C@H](C)C2)c(F)cc2c(=O)c(C(=O)O)cn(C3CC3)c12 (relative stereo) [Compound 93] , I found its melting point recorded as 206 to 210 °C

Looking up CCC1(C)CN(c2c(F)c(N)c3c(=O)c(C(=O)O)cn(C4CC4)c3c2OC)CCC1NC1CC1 (centres unmarked) [Compound 79] , I found its melting point recorded as 186 to 188 °C

Looking up CCC1CN(c2c(F)c(N)c3c(=O)c(C(=O)O)cn(C4CC4)c3c2OC)CCC1O (centres unmarked) [Compound 137] , I found its melting point recorded as 217 to 219 °C

Looking up CCC1(C)CN(c2c(F)cc3c(=O)c(C(=O)O)cn(C4CC4)c3c2OC)CCC1N (centres unmarked) [Compound 39] , I found its melting point recorded as 152 to 154 °C

Looking up COc1c(N2CC[C@H](N)[C@H](C)C2)c(F)cc2c(=O)c(C(=O)O)cn(C3CC3)c12 (relative stereo) [Compound 5] , I found its melting point recorded as 246 to 250 °C

Looking up Cc1c(N2CCC(N)C(C)(C)C2)c(F)cc2c(=O)c(C(=O)O)cn(C3CC3)c12 (single isomer, unassigned; (-)) [Compound 109] , I found its melting point recorded as 195 to 198 °C

Looking up CCC1(C)CN(c2c(F)c(N)c3c(=O)c(C(=O)O)cn(C4CC4)c3c2OC)CCC1NC (centres unmarked) [Compound 78] , I found its melting point recorded as 164 to 166 °C

Looking up COc1c(N2CCC(NC3CC3)C(C)(C)C2)c(F)cc2c(=O)c(C(=O)O)cn(C3CC3)c12 (centres unmarked) [Compound 37] , I found its melting point recorded as 190 to 192 °C

Looking up COc1c(N2CC(C)C(N)C(C)C2)c(F)c(N)c2c(=O)c(C(=O)O)cn(C3CC3)c12 (centres unmarked) [Example 53] , I found its melting point recorded as 248 to 250 °C (dec.)

Looking up CCOC(=O)NC1CCN(c2c(F)cc3c(=O)c(C(=O)O)cn(C4CC4)c3c2OC)CC1(C)C (centres unmarked) [Compound 30] , I found its melting point recorded as 222 °C

Looking up Cc1c(N2CCC(N(C)C)C(C)(C)C2)c(F)cc2c(=O)c(C(=O)O)cn(C3CC3)c12 (centres unmarked) [Compound 116] , I found its melting point recorded as 209 to 210 °C

Looking up CCNC1C(C)CN(c2c(F)c(N)c3c(=O)c(C(=O)O)cn(C4CC4)c3c2OC)CC1C (centres unmarked) [Example 58] , I found its melting point recorded as 255 to 258 °C

Looking up CCC1(C)CN(c2c(F)c(N)c3c(=O)c(C(=O)O)cn(C4CC4)c3c2OC)CCC1N(C)C (centres unmarked) [Compound 80] , I found its melting point recorded as 194 to 196 °C

Looking up CNC1CCN(c2c(F)cc3c(=O)c(C(=O)O)cn(C4CC4)c3c2OC)CC1(C)C (centres unmarked) [Compound 35] , I found its melting point recorded as 246 to 248 °C

Looking up Cc1c(N2CCC(N)C(C)(C)C2)c(F)cc2c(=O)c(C(=O)O)cn(C3CC3)c12.Cl (single isomer, unassigned; (-)) [Compound 110] , I found its melting point recorded as 300 °C

Looking up COc1c(N2CCC(N)C(C)C2)c(F)c(N)c2c(=O)c(C(=O)O)cn(C3CC3)c12 (centres unmarked) [Compound 53] , I found its melting point recorded as 260 to 262 °C

Looking up COc1c(N2CC(C)C(N)C(C)(C)C2)c(F)cc2c(=O)c(C(=O)O)cn(C3CC3)c12 (centres unmarked) [Compound 50] , I found its melting point recorded as 218 to 220 °C

Looking up CCNC1CCN(c2c(F)c(N)c3c(=O)c(C(=O)O)cn(C4CC4)c3c2OC)CC1C (centres unmarked) [Compound 61] , I found its melting point recorded as 230 to 232 °C

Looking up CCC1(C)CN(c2c(F)cc3c(=O)c(C(=O)O)cn(C4CC4)c3c2OC)CCC1NC (centres unmarked) [Compound 40] , I found its melting point recorded as 182 to 184 °C

Looking up CCNC1CCN(c2c(F)cc3c(=O)c(C(=O)O)cn(C4CC4)c3c2OC)CC1C (centres unmarked) [Compound 10] , I found its melting point recorded as 160 to 162 °C

Looking up COc1c(N2CCC(N(C)C)C(C)(C)C2)c(F)cc2c(=O)c(C(=O)O)cn(C3CC3)c12 (centres unmarked) [Compound 38] , I found its melting point recorded as 210 °C

Looking up CCC1(C)CN(c2c(F)c(N)c3c(=O)c(C(=O)O)cn(C4CC4)c3c2OC)CCC1N (centres unmarked) [Compound 77] , I found its melting point recorded as 210 °C (dec.)
